Data provenance is paper PMC3828397.

Test system: P. falciparum chloroquine sensitive (D6, Sierra Leone) strain
protocol details: In vitro antimalarial assay (SYBR green), D6 strain
Assay type: cell-based, Plasmodium falciparum
stated conditions: Plasmodium falciparum, D6, read-out: Pf (D6) CQ sensitive IC50
pIC50: −log10 of the molar value.
parameter: pIC50

[
  {
    "compound": "CCN(CC)CCCC(C)Nc1ccnc2cc(Cl)ccc12 (centres unmarked) [CQ, chloroquine]",
    "parameter": "pIC50",
    "rel": "=",
    "measurement": 7.26
  },
  {
    "compound": "CN(C)CCC(=O)c1ccccc1 [3-DAP, 3-dimethylaminopropiophenone]",
    "parameter": "pIC50",
    "rel": "<",
    "measurement": 4.00
  }
]

---

Tested on: 3T3 cells
protocol details: Cytotoxicity assay (AlamarBlue)
Assay type: cell-based
stated conditions: Mus musculus, NIH3T3, read-out: 3T3 IC50

[
  {
    "mol": "CN(C)CCC(=O)c1ccccc1",
    "IC50": "> 100 µM"
  }
]
